TEST SYSTEM: Alpha-2C adrenergic receptor (Rattus norvegicus)
Sequence (P22086 whole entry): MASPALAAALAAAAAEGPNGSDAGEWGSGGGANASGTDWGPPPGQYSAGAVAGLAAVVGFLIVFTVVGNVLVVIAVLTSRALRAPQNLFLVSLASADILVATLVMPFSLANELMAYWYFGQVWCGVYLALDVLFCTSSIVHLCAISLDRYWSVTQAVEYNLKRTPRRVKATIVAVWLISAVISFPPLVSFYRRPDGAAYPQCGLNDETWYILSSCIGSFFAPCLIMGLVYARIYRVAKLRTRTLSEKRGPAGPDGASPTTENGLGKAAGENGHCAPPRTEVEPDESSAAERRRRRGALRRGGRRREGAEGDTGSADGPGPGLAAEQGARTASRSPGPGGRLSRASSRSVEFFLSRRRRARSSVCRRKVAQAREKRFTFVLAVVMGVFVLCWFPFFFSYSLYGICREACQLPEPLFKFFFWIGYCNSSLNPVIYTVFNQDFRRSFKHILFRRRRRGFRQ
ASSAY METRIC: pKi
Answers are plain numbers, as −log10 of the molar value.

The recorded pKi for Fc1cccc2c1OC1CNCC1O2 (stereo unspecified) is 9.30

###

TEST SYSTEM: Alpha-2C adrenergic receptor (Homo sapiens, UniProt P18825)
Sequence (P18825 whole entry): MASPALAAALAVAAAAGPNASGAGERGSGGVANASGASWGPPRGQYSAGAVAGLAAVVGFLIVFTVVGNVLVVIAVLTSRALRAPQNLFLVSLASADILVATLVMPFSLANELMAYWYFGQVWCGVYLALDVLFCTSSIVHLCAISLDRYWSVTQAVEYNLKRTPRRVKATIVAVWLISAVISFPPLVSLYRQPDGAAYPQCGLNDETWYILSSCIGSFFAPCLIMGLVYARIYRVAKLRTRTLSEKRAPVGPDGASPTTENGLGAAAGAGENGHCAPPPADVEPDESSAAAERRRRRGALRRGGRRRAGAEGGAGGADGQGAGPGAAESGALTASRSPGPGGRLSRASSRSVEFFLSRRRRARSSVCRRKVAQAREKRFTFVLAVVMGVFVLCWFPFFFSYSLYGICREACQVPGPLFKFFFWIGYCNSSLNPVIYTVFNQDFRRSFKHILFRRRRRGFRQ
ASSAY METRIC: pKi
Numbers only, as −log10 of the molar value.

The compound Fc1cccc2c1OC1CNCC1O2 (stereo unspecified) [CAS_105182-45-4] showed pKi equal to 8.80

###

Below are pKi values recorded for UniProt:P14416.
Sequence (P14416 whole entry): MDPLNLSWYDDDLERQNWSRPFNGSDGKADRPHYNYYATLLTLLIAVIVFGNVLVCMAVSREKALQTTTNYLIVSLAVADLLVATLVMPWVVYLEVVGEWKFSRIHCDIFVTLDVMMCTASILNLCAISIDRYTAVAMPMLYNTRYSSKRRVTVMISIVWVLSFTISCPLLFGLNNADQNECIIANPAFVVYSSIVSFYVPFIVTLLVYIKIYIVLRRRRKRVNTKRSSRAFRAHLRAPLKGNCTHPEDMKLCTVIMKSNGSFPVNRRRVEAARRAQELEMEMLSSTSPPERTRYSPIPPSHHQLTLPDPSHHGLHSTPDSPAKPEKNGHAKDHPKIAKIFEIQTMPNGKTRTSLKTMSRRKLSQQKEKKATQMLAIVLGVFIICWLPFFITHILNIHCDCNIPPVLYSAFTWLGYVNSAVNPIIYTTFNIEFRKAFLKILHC
Numbers only, as −log10 of the molar value.

COC(=O)[C@@H]1[C@H]2C[C@H]3c4[nH]c5ccccc5c4CCN3C[C@@H]2CC[C@@H]1O [yohimbic acid methyl ester] ... 6.40

# pKi (compound: Fc1cccc2c1OC1CNCC1O2 (configuration not stated) [CAS_105182-45-4] ) is 6.00

###

For reference, Ki measured on UniProt:O08892:
Hey, just the number and the unit after it is fine.

COC(=O)[C@@H]1[C@H]2C[C@H]3c4[nH]c5ccccc5c4CCN3C[C@@H]2CC[C@@H]1O [yohimbic acid methyl ester] ... 50.1 nM
Fc1cccc2c1OC1CNCC1O2 (stereo not drawn) [CAS_105182-45-4] ... 1000 nM

So for NCCc1c[nH]c2ccc(O)cc12 [[3H]-5-HT] , the logged Ki turned out to be 2.51 nM

###

TEST SYSTEM: Alpha-2A adrenergic receptor [16-465] (Rattus norvegicus)
Sequence (P22909 16-465): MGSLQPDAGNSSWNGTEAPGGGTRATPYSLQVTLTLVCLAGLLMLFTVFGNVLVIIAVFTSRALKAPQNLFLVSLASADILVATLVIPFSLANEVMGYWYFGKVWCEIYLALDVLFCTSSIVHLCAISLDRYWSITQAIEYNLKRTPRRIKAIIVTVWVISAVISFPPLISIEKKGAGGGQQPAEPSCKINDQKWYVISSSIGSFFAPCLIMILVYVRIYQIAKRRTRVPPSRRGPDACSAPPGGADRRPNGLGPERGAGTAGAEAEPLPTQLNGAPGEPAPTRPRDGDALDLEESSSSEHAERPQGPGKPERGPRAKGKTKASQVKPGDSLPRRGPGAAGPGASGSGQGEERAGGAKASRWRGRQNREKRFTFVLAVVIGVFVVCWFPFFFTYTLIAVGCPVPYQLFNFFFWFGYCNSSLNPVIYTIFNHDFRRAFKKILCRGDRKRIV
ASSAY METRIC: pKi
One number for each entry, as −log10 of the molar value.

Entry Fc1cccc2c1OC1CNCC1O2 (stereo unspecified) [CAS_105182-45-4] , tested on Alpha-2A adrenergic receptor [16-465] (Rattus norvegicus), has a reported pKi of 8.90

###

TEST SYSTEM: 5-hydroxytryptamine receptor 3A (Mus musculus, UniProt P23979)
Sequence (P23979 as listed by the source): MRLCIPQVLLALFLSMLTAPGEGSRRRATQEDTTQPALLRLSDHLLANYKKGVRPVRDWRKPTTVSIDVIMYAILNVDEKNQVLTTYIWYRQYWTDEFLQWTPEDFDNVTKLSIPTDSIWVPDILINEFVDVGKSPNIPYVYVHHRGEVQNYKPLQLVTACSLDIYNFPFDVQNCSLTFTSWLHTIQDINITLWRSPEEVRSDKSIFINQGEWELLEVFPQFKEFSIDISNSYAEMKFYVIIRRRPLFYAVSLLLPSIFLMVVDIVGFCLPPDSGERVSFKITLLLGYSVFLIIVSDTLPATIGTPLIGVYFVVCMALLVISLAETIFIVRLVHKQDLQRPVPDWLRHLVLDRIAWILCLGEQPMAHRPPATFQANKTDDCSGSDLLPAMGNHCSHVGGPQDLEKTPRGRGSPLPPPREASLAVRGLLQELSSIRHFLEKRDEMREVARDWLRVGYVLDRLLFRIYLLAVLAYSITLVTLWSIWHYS
ASSAY METRIC: pKi
Numbers only, as −log10 of the molar value.

// Cc1nccn1CC1CCc2c(c3ccccc3n2C)C1=O (stereo unspecified) : pKi value = 8.40

###

TEST SYSTEM: 5-hydroxytryptamine receptor 2C (Sus scrofa, UniProt K7GSR7)
Sequence (K7GSR7 whole entry): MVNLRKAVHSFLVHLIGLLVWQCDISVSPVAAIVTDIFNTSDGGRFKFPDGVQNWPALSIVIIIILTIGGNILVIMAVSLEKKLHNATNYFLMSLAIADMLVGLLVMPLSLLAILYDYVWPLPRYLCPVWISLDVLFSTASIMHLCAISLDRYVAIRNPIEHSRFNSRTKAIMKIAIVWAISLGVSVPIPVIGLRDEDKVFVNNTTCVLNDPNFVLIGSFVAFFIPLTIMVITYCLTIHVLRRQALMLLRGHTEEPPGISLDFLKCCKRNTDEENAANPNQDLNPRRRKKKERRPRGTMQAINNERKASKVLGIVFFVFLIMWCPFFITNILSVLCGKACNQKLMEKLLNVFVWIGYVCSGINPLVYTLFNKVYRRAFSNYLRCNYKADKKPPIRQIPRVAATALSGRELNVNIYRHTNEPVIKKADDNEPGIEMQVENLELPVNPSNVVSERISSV
ASSAY METRIC: Ki (nM)
Answers are plain numbers, in nM.

Lab book: Ki of NCCc1c[nH]c2ccccc12 noted as 79.4
